Every entry's value here was drawn from paper PMC9597602.

Tested on: human red blood cells
Format: cell-based
REPORTED_CONDITIONS: ranges obtained upon retesting, new batch
Description: Human whole blood (Australian Red Cross) was washed three times with 3 vol of 0.9% NaCl and resuspended in a concentration of 0.5 × 10^8 cells/mL, determined by a manual cell count in a Neubauer hemocytometer. […]

| COMPOUND | TARGET | RBC HC10 |
| --- | --- | --- |
| Cc1c(C)c(C)[c-](C)c1C.Cc1c(C)c(C)[c-](C)c1C.[Cl-].[Cl-].[Cl-].[Cl-].[Rh+3].[Rh+3] | human red blood cells | 0.4 to 3 µM |
| CC(=NN=C(N)[S-])C(C)=NN=C(N)[S-].O=[N+]([O-])[O-].[Co+3].c1c[nH]cn1.c1c[nH]cn1 | human red blood cells | > 100 µM |
| O=C([O][Ag])c1ccc(N2N=C(/C=C/C=C/c3ccccc3)CC2/C=C/c2ccccc2)cc1.O=C([O][Ag])c1ccc(N2N=C(/C=C/C=C/c3ccccc3)CC2/C=C/c2ccccc2)cc1 (racemic) | human red blood cells | > 200 µM |
| Cc1c(C)c(-c2ccc(-c3ccccc3)cc2)[c-](C)c1C.Cc1ccccc1NC1=[NH+][Ir]([Cl])[NH]C(NS(=O)(=O)c2ccc([N+](=O)[O-])cc2)=N1 | human red blood cells | 2 to 76 µM |
| Cc1ccc2ccc3ccc(C)nc3c2n1.Cc1ccc2ccc3ccc(C)nc3c2n1.O=C([O][Eu]([O]C(=O)c1ccccc1F)[O]C(=O)c1ccccc1F)c1ccccc1F | human red blood cells | > 200 µM |
| c1ccc([PH]([Au][S]c2ccccn2)(c2ccccc2)c2ccccc2)cc1 | human red blood cells | > 200 µM |

* * *

Here the recorded MIC is given for each entry.
System: Candida albicans ATCC 90028 NCCLS11
EXPERIMENT_SUMMARY: Antifungal MIC assay
Format: cell-based
REPORTED_CONDITIONS: Candida albicans, ATCC90028; comparator antifungals; ≥80% inhibition; converted with MW of Table S12; read-out: MIC* Candida albicans ATCC 90028
Starred links: 1 amine or outer side, 2 acyl side, 3 side chain; linkers in the order of their positions; H or OH if unused. Positions of bridges follow the written chain, without caps; N, C: chain ends. Non-standard residues stand in square brackets, D forms with d. Residues, ends and D or L forms follow the SMILES beside them. *: point of attachment. pTerphenylCO(4''-OnC5H11) = CCCCCOc1ccc(-c2ccc(-c3ccc(C(=O)*)cc3)cc2)cc1; Orn(4R-OH,5R-OH) = O=C([C@H](C[C@@H](O)[C@@H](O)N[*:3])N[*:1])[*:2]; hTyr(3S-OH,4S-OH) = N[C@H](C(=O)O)[C@H](O)[C@@H](O)c1ccc(O)cc1; Pro(3S-OH,4S-Me) = C[C@H]1CN[C@H](C(=O)O)[C@H]1O; Hyp = O=C(O)[C@@H]1C[C@@H](O)CN1

| MOLECULE | MIC |
| --- | --- |
| CC[C@@H]([C@H](C)O)n1ncn(-c2ccc(N3CCN(c4ccc(OC[C@@H]5CO[C@@](Cn6cncn6)(c6ccc(F)cc6F)C5)cc4)CC3)cc2)c1=O [Posaconazole, reference compound] | 0.002 to 0.063 µM |
| CCC(C)n1ncn(-c2ccc(N3CCN(c4ccc(OCC5COC(Cn6cncn6)(c6ccc(Cl)cc6Cl)O5)cc4)CC3)cc2)c1=O (centres unmarked) [Itraconazole, reference compound] | 0.089 to 0.354 µM |
| CC(=O)N1CCN(c2ccc(OCC3COC(Cn4ccnc4)(c4ccc(Cl)cc4Cl)O3)cc2)CC1 (centres unmarked) [Ketoconazole, reference compound] | 0.005 to 0.01 µM |
| CCCCCOc1ccc(-c2ccc(-c3ccc(C(=O)N[C@H]4C[C@@H](O)[C@@H](O)NC(=O)[C@@H]5[C@@H](O)[C@@H](C)CN5C(=O)[C@H]([C@@H](C)O)NC(=O)[C@H]([C@H](O)[C@@H](O)c5ccc(O)cc5)NC(=O)[C@@H]5C[C@@H](O)CN5C(=O)[C@H]([C@@H](C)O)NC4=O)cc3)cc2)cc1 [Anidulafungin, reference compound] ({pTerphenylCO(4''-OnC5H11)}-[Orn(4R-OH,5R-OH)]T[Hyp][hTyr(3S-OH,4S-OH)]T[Pro(3S-OH,4S-Me)]; lactam 1-C) | 0.027 to 0.11 µM |
| C[C@@H](c1ncncc1F)[C@](O)(Cn1cncn1)c1ccc(F)cc1F [Voriconazole, reference compound] | 0.032 µM |

* * *

Here the recorded RBC HC10 is given for each entry.
Test system: human red blood cells
Assay type: cell-based
REPORTED_CONDITIONS: initial CO-ADD screening, 1 h; 10% hemolysis

| COMPOUND | TARGET | RBC HC10 |
| --- | --- | --- |
| Cc1cccc2[n+]1[Pd-2]([Cl])([Cl])[n+]1c(C)cccc1C(c1ccccc1)=C=C2c1ccccc1 | human red blood cells | > 32 µg/mL |
| COc1ccc(/C=C/C2=NN(c3ccc(C(=O)[O][Ag])cc3)C(c3ccc(OC)c(OC)c3)C2)cc1OC.COc1ccc(/C=C/C2=NN(c3ccc(C(=O)[O][Ag])cc3)C(c3ccc(OC)c(OC)c3)C2)cc1OC (racemic) | human red blood cells | >32 µg/mL |
| O=C([O][Eu]([O]C(=O)c1ccccc1F)[O]C(=O)c1ccccc1F)c1ccccc1F.c1cnc2c(c1)ccc1cccnc12 | human red blood cells | > 20 µM |
| CS(=O)(=O)[O][Pd][c]1ccccc1-c1ccccc1N.CS(=O)(=O)[O][Pd][c]1ccccc1-c1ccccc1N | human red blood cells | >20 µM |

* * *

Here the recorded MIC Ab is given for each entry.
Test system: Acinetobacter baumannii ATCC 19606 type strain
EXPERIMENT_SUMMARY: CO-ADD antibacterial MIC assay
Format: cell-based
REPORTED_CONDITIONS: initial CO-ADD dose-response screening; ≥80% growth inhibition
MEASURED_PROPERTY: MIC Ab

| COMPOUND | OBS_VALUE |
| --- | --- |
| C1=CCCC=CCC1.[Cl][Pt][Cl] [Pt1] | >20 µM |
| Cc1c(C)c(-c2ccc(-c3ccccc3)cc2)[c-](C)c1C.Cc1ccccc1NC1=[NH+][Ir]([Cl])[NH]C(NS(=O)(=O)c2cccc3c(N(C)C)cccc23)=N1 [Ir3] | >32 µg/mL |
| O=C([O][Eu]([O]C(=O)c1ccccc1F)[O]C(=O)c1ccccc1F)c1ccccc1F.c1ccc(-c2ccnc3c2ccc2c(-c4ccccc4)ccnc23)cc1 [Eu-S3] | > 20 µM |
| Cc1cccc2[n+]1[Pd-2]([Cl])([Cl])[n+]1c(C)cccc1C(c1ccccc1)=C=C2c1ccccc1 [HM_C1] | > 32 µg/mL |
| c1ccc([PH]([Au][S]c2ccccn2)(c2ccccc2)c2ccccc2)cc1 [Au2] | >32 µg/mL |
| Cc1cccc2[n+]1[Au-]([Cl])([Cl])[n+]1c(C)cccc1C(c1ccccc1)=C=C2c1ccccc1.[Cl-] [Au-S11] | > 32 µg/mL |
| C1=CCCC=CCC1.[I][Pt][I] [Pt2] | >20 µM |
| Nc1cc2cccnc2c2ncccc12.O=C([O][Eu]([O]C(=O)c1ccccc1F)[O]C(=O)c1ccccc1F)c1ccccc1F [Eu-S4] | > 20 µM |

* * *

System: Acinetobacter baumannii ATCC 19606 type strain
EXPERIMENT_SUMMARY: CO-ADD antibacterial MIC assay
Assay type: cell-based
REPORTED_CONDITIONS: initial CO-ADD dose-response screening; ≥80% growth inhibition
Here the recorded MIC Ab is given for each entry.

| COMPOUND | MIC Ab |
| --- | --- |
| O=C([O][Eu]([O]C(=O)c1cc(F)ccc1F)[O]C(=O)c1cc(F)ccc1F)c1cc(F)ccc1F.c1ccc(-c2ccnc3c2ccc2c(-c4ccccc4)ccnc23)cc1 | > 20 µM |
| Cc1c(C)c(-c2ccc(-c3ccccc3)cc2)[c-](C)c1C.Cc1ccccc1NC1=[NH+][Ir]([Cl])[NH]C(NS(=O)(=O)c2ccc([N+](=O)[O-])cc2)=N1 | >32 µg/mL |
| CS(=O)(=O)[O][Pd][c]1ccccc1-c1ccccc1N.CS(=O)(=O)[O][Pd][c]1ccccc1-c1ccccc1N | >20 µM |
| O=C([O][Eu]([O]C(=O)c1ccc(F)cc1F)[O]C(=O)c1ccc(F)cc1F)c1ccc(F)cc1F.c1ccc(-c2ccnc3c2ccc2c(-c4ccccc4)ccnc23)cc1 | > 20 µM |
| Cc1cccc(C2(c3ccccc3)[C]([Au-][Cl])=C(C(C)(C)C)c3cccc(C)[n+]32)n1 (stereo not drawn) | 32 µg/mL |
| CC1=CC=CC2=C(c3ccccc3)[C](=[Au]([Cl])([Cl])[Cl])C(c3ccccc3)(c3cccc(C)n3)N12 (stereo not drawn) | 32 µg/mL |
